assay-text: Metabolic stability in mouse liver microsomes assessed as intrinsic clearance
Format: ADME, Microsome
measurement-setup: read-out: CLH
assay-endpoint: microsomal CLint

>>> df
                                      smiles           result
 0  N#Cc1ccc(Cn2c(-c3nonc3N)nc3cccc(F)c32)nn1     37 µL/min/mg
 1        Nc1nonc1-c1nc2cccc(F)c2n1Cc1ccncc1     66 µL/min/mg
 2        Nc1nonc1-c1nc2cccc(F)c2n1Cc1cccnn1  < 9.6 µL/min/mg
 3        Nc1nonc1-c1nc2ccc(F)cc2n1Cc1ccncc1     58 µL/min/mg
 4  Nc1nonc1-c1nc2cccc(F)c2n1Cc1ccc(C(F)(F)F)nn1    245 µL/min/mg
 5     Nc1nonc1-c1nc2ccc(F)c(F)c2n1Cc1cccnn1  < 9.6 µL/min/mg
 6        Nc1nonc1-c1nc2cccc(F)c2n1Cc1ccnnc1   13.9 µL/min/mg
 7        Nc1nonc1-c1nc2cccc(F)c2n1Cc1ccncn1     30 µL/min/mg
 8        Nc1nonc1-c1nc2c(F)cccc2n1Cc1ccncc1     74 µL/min/mg
 9        Nc1nonc1-c1nc2cc(F)ccc2n1Cc1ccncc1     28 µL/min/mg
10        Nc1nonc1-c1nc2cccc(F)c2n1Cc1cncnc1     18 µL/min/mg
11     Nc1nonc1-c1nc2c(F)ccc(F)c2n1Cc1cccnn1   10.1 µL/min/mg
12        Nc1nonc1-c1nc2cccc(F)c2n1Cc1cnccn1     50 µL/min/mg

###

// reported Kp at 4 h for each item listed
assay-text: Ratio of drug concentration in brain to plasma C57BL/6 mouse at 10 mg/kg, po measured after 4 hrs by LC-MS/MS analysis
Assay type: ADME, organism-based
measurement-setup: brain and plasma, read-out: BPR
assay-endpoint: Kp at 4 h

In [3]: df
Out[3]:
                                  smiles  recorded_number
0     Nc1nonc1-c1nc2cccc(F)c2n1Cc1cccnn1             0.84
1  Nc1nonc1-c1nc2c(F)ccc(F)c2n1Cc1cccnn1             0.96
2     Nc1nonc1-c1nc2cccc(F)c2n1Cc1cnccn1             0.56
3  Nc1nonc1-c1nc2ccc(F)c(F)c2n1Cc1cccnn1             1.17
4     Nc1nonc1-c1nc2cccc(F)c2n1Cc1ccnnc1             0.68

###

assay-text: AUC (0 to infinity) in Cynomolgus monkey at 1 mg/kg, iv
Type: ADME, organism-based, Macaca fascicularis
measurement-setup: in vivo
assay-endpoint: AUC(0-inf) (ng·h/mL)

In [3]: df
Out[3]:
                               smiles  assay_endpoint  output_unit  recorded_number
0  Nc1nonc1-c1nc2cccc(F)c2n1Cc1cccnn1      AUC(0-inf)      ng·h/mL              782

###

assay-text: Clearance in Sprague-Dawley rat at 0.5 mg/kg, iv
Assay type: ADME, organism-based
measurement-setup: in vivo
assay-endpoint: clearance (mL/min/kg)

                               smiles  assay_endpoint  output_unit  recorded_number
0  Nc1nonc1-c1nc2cccc(F)c2n1Cc1cccnn1       clearance    mL/min/kg               35

Data origin: ChEMBL document CHEMBL5634193
